Measured pKd, listed per entry for reference.
Molecular target: T1, Wild type CD117 purified protein (human, UniProt P10721 26-520, limits assumed)
T1 construct: Protein used in BLI/kinetics and cryo-EM; also called wt CD117; Wt CD117
T1 sequence (P10721 26-520 limits assumed): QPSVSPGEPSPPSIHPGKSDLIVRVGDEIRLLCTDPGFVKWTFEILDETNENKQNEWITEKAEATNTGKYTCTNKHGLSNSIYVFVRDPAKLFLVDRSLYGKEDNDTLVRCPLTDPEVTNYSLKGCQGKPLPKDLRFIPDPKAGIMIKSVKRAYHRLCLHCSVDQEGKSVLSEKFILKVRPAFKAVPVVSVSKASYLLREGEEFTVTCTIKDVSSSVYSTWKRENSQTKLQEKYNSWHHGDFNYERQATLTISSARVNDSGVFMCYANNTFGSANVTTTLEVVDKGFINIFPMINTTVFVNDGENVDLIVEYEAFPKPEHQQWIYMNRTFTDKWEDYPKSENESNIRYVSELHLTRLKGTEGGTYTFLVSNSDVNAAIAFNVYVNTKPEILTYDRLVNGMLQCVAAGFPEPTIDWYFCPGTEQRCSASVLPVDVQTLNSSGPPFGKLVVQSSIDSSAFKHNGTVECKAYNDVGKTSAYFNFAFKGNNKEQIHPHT
Assay: monovalent KD, CD117 titrated (FIGS. 73A-73E)
Field pKd (float): negative decimal logarithm of the concentration in molar.

Some solved entries appear below for comparison.
ABTx196 (antibody, human IgG1, V domains shown) VH: EVQLVESGGGLVQPGRSLRLSCAASGFTFDDYAMHWVRQAPGKGLEWVSGISWNSGTIGYADSVKGRFTNSRDNAKNSLYLEMNSLRAEDTALYYCAKDSPPGYCSSASCYGAFDIWGQGTMVTVSS VL: DVVMTQSPGTLSLSPGERATLSCRASQSVSSSYLAWYQQKPGQAPRLLIYGASSRATGIPDRFSGSGSGTDFTLTISRLEPEDFAVYYCQQSETCLTFGGGTKLEIK ... 8.09
ABTx198 (antibody, human IgG1, V domains shown) VH: EVQLVESGGGLVQPGRSLRLSCAASGFTFDDYAMHWVRQAPGKGLEWVSGISWNSGTIGYADSVKGRFTNSRDNAKNSLYLEMNSLRAEDTALYYCAKDSPPGYCASASCYGAFDIWGQGTMVTVSS VL: DVVMTQSPGTLSLSPGERATLSCRASQSVSSSYLAWYQQKPGQAPRLLIYGASSRATGIPDRFSGSGSGTDFTLTISRLEPEDFAVYYCQQDSLGLTFGGGTKLEIK ... 8.92

# input for lookup
Exercise: State the recorded pKd for this entry: ABTx202 (antibody, human IgG1, V domains shown) VH: EVQLVESGGGLVQPGRSLRLSCAASGFTFDDYAMHWVRQAPGKGLEWVSGISWNSGTIGYADSVKGRFTSSRDNAKNSLYLEMNSLRAEDTALYYCAKDSPPGYCSSASCYGAFDIWGQGTMVTVSS VL: EIVMTQSPGTLSLSPGERATLSCRASQSVSSSYLAWYQQKPGQAPRLLIYGSSTRATGIPARFSGSGSGTEFALTISSLQSEDFAVYYCQQYNFWPYTFGQGTKVEIK
Solution: 8.62

FYI, the data here is from patent US20260166085A1.
